# Target or test system: Endothelial PAS domain-containing protein 1 (Homo sapiens) (UniProt Q99814)
# Protocol description: HIF-2a and HIF-1a reporter inhibition panel, dose response, selectivity assay for HIF-2a inhibitor project, cell-based, luminescence (AID 651581)
# Protocol conditions: HIF-2a, mean of runs
The source made the active and inactive calls. How the calls were made is not given here.
Possible outcomes: active, inactive

>  <Compound>
Cc1cc(NC(=O)c2ccccc2)c(Cl)cc1N

>  <Class>
active

$$$$
>  <Compound>
CCOc1ccc(-c2cc(CCCC(=O)Nc3cc(OC)ccc3OC)no2)cc1

>  <Class>
active

$$$$
>  <Compound>
NC(=O)COC(=O)CCCSc1nc2ccccc2s1

>  <Class>
active

$$$$
>  <Compound>
CCN(CC)CCCC(C)n1c2nc(=O)[nH]c(=O)c-2nc2cc(Cl)ccc21 (configuration not stated)

>  <Class>
active

$$$$
>  <Compound>
CC1(C)CC[C@]2(C(=O)O)CC[C@]3(C)C(=CC[C@@H]4[C@@]5(C)CC[C@H](O[C@@H]6O[C@H](C(=O)O)[C@@H](O)[C@H](O[C@@H]7OC[C@H](O)[C@H](O)[C@H]7O)[C@H]6O)C(C)(C)[C@@H]5CC[C@]43C)[C@@H]2C1

>  <Class>
inactive

$$$$
>  <Compound>
COC(=O)CCCNC(=O)CCc1nnc(-c2ccc(-c3ccccc3)cc2)o1

>  <Class>
active

$$$$
>  <Compound>
CSC(SC)=C(C#N)C(=O)c1ccccc1

>  <Class>
active

$$$$
>  <Compound>
COc1ccc(/C=C2\SC(=O)N(CCNC(=O)Cn3[nH]c(=O)c4ccccc4c3=O)C2=O)cc1

>  <Class>
inactive

$$$$
>  <Compound>
Nc1ccc2oc(-c3cc(Br)ccc3Cl)nc2c1

>  <Class>
active

$$$$
>  <Compound>
O=C(CCCc1ccccc1)Nc1cccc(C(=O)O)c1

>  <Class>
inactive

$$$$
>  <Compound>
CNC(=O)NC(=O)COC(=O)CCCSc1nc2ccccc2s1

>  <Class>
active

$$$$
>  <Compound>
O=C(Nc1ccc(Cl)cc1Cl)c1cccc(N2C(=O)C=CC2=O)c1

>  <Class>
active

$$$$
>  <Compound>
CC(=O)/C=C1/C(=O)Nc2ccccc21

>  <Class>
inactive

$$$$
>  <Compound>
C=CS(=O)(=O)c1sc(Cl)c(N2CCOCC2)c1[N+](=O)[O-]

>  <Class>
active

$$$$
>  <Compound>
COc1cccc(C(=O)C(C#N)=C(SC)SC)c1

>  <Class>
active

$$$$
>  <Compound>
Cc1nc(SCCC(=O)O)c2cc(-c3ccccc3)sc2n1

>  <Class>
active

$$$$
>  <Compound>
O=C(O)COc1ccc2oc3ccccc3c2c1

>  <Class>
inactive

$$$$

* * *

# Target or test system: Endothelial PAS domain-containing protein 1 (Homo sapiens) (UniProt Q99814)
# Protocol description: HIF-2a and HIF-1a reporter inhibition panel, dose response, selectivity assay for HIF-2a inhibitor project, cell-based, luminescence (AID 651581)
# Protocol conditions: HIF-2a PANC, run 2
pIC50: −log10 of the molar value.

>  <Structure as smiles>
O=C(CCCc1ccccc1)Nc1cccc(C(=O)O)c1

>  <Result comparator>
<

>  <pIC50>
4.00

$$$$
>  <Structure as smiles>
Cc1ccc(S(=O)(=O)Nc2cccc3cccnc23)c([N+](=O)[O-])c1

>  <Result comparator>
<

>  <pIC50>
4.00

$$$$
>  <Structure as smiles>
Cc1cc(C(=O)Nc2cccc(C(=O)O)c2)oc1C

>  <Result comparator>
<

>  <pIC50>
4.00

$$$$
>  <Structure as smiles>
O=C(O)c1ccc(N/N=C/c2ccc(C(F)(F)F)cc2)cc1

>  <Result comparator>
=

>  <pIC50>
5.07

$$$$
>  <Structure as smiles>
O=C(Nc1sc2c(c1C(=O)O)CCC2)c1ccccc1Cl

>  <Result comparator>
=

>  <pIC50>
4.30

$$$$
>  <Structure as smiles>
CCOc1cc(/C=N/Nc2cccc(C(=O)O)c2)ccc1OC(=O)c1ccccc1

>  <Result comparator>
=

>  <pIC50>
4.52

$$$$
>  <Structure as smiles>
COc1cc(/C=N/O)ccc1OCc1ccc(C(=O)O)cc1

>  <Result comparator>
<

>  <pIC50>
4.00

$$$$
>  <Structure as smiles>
Cc1cc(C)c(C)c(S(=O)(=O)ON2C(=O)c3ccccc3C2=O)c1C

>  <Result comparator>
=

>  <pIC50>
4.66

$$$$
>  <Structure as smiles>
CCOC(=O)NC(=O)COC(=O)CCCSc1nc2ccccc2s1

>  <Result comparator>
=

>  <pIC50>
4.97

$$$$
>  <Structure as smiles>
CC(=O)Nc1ccc(NC(=O)c2c([N+](=O)[O-])c(C(C)(C)C)nn2C)cc1

>  <Result comparator>
=

>  <pIC50>
4.97

$$$$

* * *

# Target or test system: Endothelial PAS domain-containing protein 1 (Homo sapiens)
# Protocol description: HIF-2a and HIF-1a reporter inhibition panel, dose response, selectivity assay for HIF-2a inhibitor project, cell-based, luminescence (AID 651581)
# Protocol conditions: HIF-2a, mean of runs
Calls of active or inactive are those of the source. How the calls were made is not given here.
Possible outcomes: YES (active), NO (inactive)

>  <Molecule>
COc1cc(N2C(=O)C=CC2=O)c(OC)cc1Cl

>  <Target or test system>
Endothelial PAS domain-containing protein 1 (Homo sapiens)

>  <Class>
YES

$$$$
>  <Molecule>
CCOC(=O)C1CCN(C(=O)Nc2ccc3snnc3c2)CC1

>  <Target or test system>
Endothelial PAS domain-containing protein 1 (Homo sapiens)

>  <Class>
NO

$$$$
>  <Molecule>
N#C/C(=C\c1ccccc1)C(=O)N(c1ccccn1)C1CCCCC1

>  <Target or test system>
Endothelial PAS domain-containing protein 1 (Homo sapiens)

>  <Class>
NO

$$$$
>  <Molecule>
COC(=O)c1cccc(NC(=O)NC(=O)c2ccccc2Cl)c1

>  <Target or test system>
Endothelial PAS domain-containing protein 1 (Homo sapiens)

>  <Class>
YES

$$$$
>  <Molecule>
O=Nc1c(O)ccc2cc(S(=O)(=O)O)ccc12

>  <Target or test system>
Endothelial PAS domain-containing protein 1 (Homo sapiens)

>  <Class>
YES

$$$$
>  <Molecule>
O=C(CSc1nnc(-c2ccc(Br)cc2)o1)Nc1cccc(C(=O)O)c1

>  <Target or test system>
Endothelial PAS domain-containing protein 1 (Homo sapiens)

>  <Class>
YES

$$$$
>  <Molecule>
C=C1C(=O)OC2CC3(C)OC3C3OC3C3=CC(OC3=O)C12 (configuration not stated)

>  <Target or test system>
Endothelial PAS domain-containing protein 1 (Homo sapiens)

>  <Class>
NO

$$$$
>  <Molecule>
Cc1nnnn1/C(=C\c1ccccc1)C(=O)OCC(=O)Nc1ccc(Cl)cc1F

>  <Target or test system>
Endothelial PAS domain-containing protein 1 (Homo sapiens)

>  <Class>
YES

$$$$
>  <Molecule>
Cc1c(CCC(=O)N2CCC(C(=O)O)(c3ccccc3)CC2)c(=O)oc2cc3oc4c(c3cc12)CCCC4

>  <Target or test system>
Endothelial PAS domain-containing protein 1 (Homo sapiens)

>  <Class>
YES

$$$$
>  <Molecule>
Cc1ccc(Oc2ccc(OCC(=O)Nc3ccncc3)cc2)cc1

>  <Target or test system>
Endothelial PAS domain-containing protein 1 (Homo sapiens)

>  <Class>
YES

$$$$
>  <Molecule>
CC(=O)Nc1ccc(NC(=O)c2oc3cc(C)c(C)cc3c2C)cc1

>  <Target or test system>
Endothelial PAS domain-containing protein 1 (Homo sapiens)

>  <Class>
YES

$$$$
>  <Molecule>
O=C(c1ccccc1)c1cc(Cl)ccc1N1C(=O)C=CC1=O

>  <Target or test system>
Endothelial PAS domain-containing protein 1 (Homo sapiens)

>  <Class>
YES

$$$$
>  <Molecule>
CCCCOC(=O)c1ccc(NC(=S)NC(=O)c2c(Br)c(C)nn2C)cc1

>  <Target or test system>
Endothelial PAS domain-containing protein 1 (Homo sapiens)

>  <Class>
YES

$$$$
>  <Molecule>
O=C(NCc1ccccc1)C(=O)Nc1cccc(C(=O)O)c1

>  <Target or test system>
Endothelial PAS domain-containing protein 1 (Homo sapiens)

>  <Class>
YES

$$$$
>  <Molecule>
Nc1ccc(-c2nnn(CC(=O)N3CCCCC3)n2)cc1

>  <Target or test system>
Endothelial PAS domain-containing protein 1 (Homo sapiens)

>  <Class>
NO

$$$$
>  <Molecule>
O=C(OCC(F)(F)F)c1cccc(COc2ccc3ccccc3c2)c1

>  <Target or test system>
Endothelial PAS domain-containing protein 1 (Homo sapiens)

>  <Class>
YES

$$$$
>  <Molecule>
Nc1ccc(-c2ncc(-c3ccccc3)o2)cc1

>  <Target or test system>
Endothelial PAS domain-containing protein 1 (Homo sapiens)

>  <Class>
YES

$$$$
>  <Molecule>
Cc1csc(NC(=O)c2cn3ccccc3n2)n1

>  <Target or test system>
Endothelial PAS domain-containing protein 1 (Homo sapiens)

>  <Class>
YES

$$$$
>  <Molecule>
c1c2c(cc3sc(N4CCOCC4)nc13)OCCO2

>  <Target or test system>
Endothelial PAS domain-containing protein 1 (Homo sapiens)

>  <Class>
NO

$$$$
>  <Molecule>
Cc1nc2cc(-c3ccccc3)nn2c(C)c1CCC(=O)N1CCN(c2ccccc2)CC1

>  <Target or test system>
Endothelial PAS domain-containing protein 1 (Homo sapiens)

>  <Class>
YES

$$$$
>  <Molecule>
Cc1ccc(NC(=O)c2cc(N3C(=O)C=CC3=O)ccc2N2CCOCC2)cc1Cl

>  <Target or test system>
Endothelial PAS domain-containing protein 1 (Homo sapiens)

>  <Class>
YES

$$$$
>  <Molecule>
CC(C)(C)c1ccc(-c2noc(CCC(=O)Nc3cccnc3)n2)cc1

>  <Target or test system>
Endothelial PAS domain-containing protein 1 (Homo sapiens)

>  <Class>
YES

$$$$
>  <Molecule>
Nc1nc2ccc(S(=O)(=O)c3ccc4nc(N)sc4c3)cc2s1

>  <Target or test system>
Endothelial PAS domain-containing protein 1 (Homo sapiens)

>  <Class>
NO

$$$$
>  <Molecule>
CC(=O)Nc1ccc(OCC(=O)c2ccc(C)cc2C)cc1

>  <Target or test system>
Endothelial PAS domain-containing protein 1 (Homo sapiens)

>  <Class>
YES

$$$$
>  <Molecule>
CCOc1ccc2nc(SCc3ccc(CC(=O)O)cc3)c(C#N)cc2c1

>  <Target or test system>
Endothelial PAS domain-containing protein 1 (Homo sapiens)

>  <Class>
YES

$$$$
>  <Molecule>
Cc1nn(-c2ccccc2Cl)c(Cl)c1/C=N/Nc1cccc(C(=O)O)c1

>  <Target or test system>
Endothelial PAS domain-containing protein 1 (Homo sapiens)

>  <Class>
NO

$$$$
>  <Molecule>
Cc1c(CCC(=O)O)c(=O)oc2cc(OCc3ccccc3Br)ccc12

>  <Target or test system>
Endothelial PAS domain-containing protein 1 (Homo sapiens)

>  <Class>
YES

$$$$
>  <Molecule>
NNC(=O)COc1ccc(-c2nccc(-c3ccc(F)cc3)n2)cc1

>  <Target or test system>
Endothelial PAS domain-containing protein 1 (Homo sapiens)

>  <Class>
YES

$$$$
>  <Molecule>
COC(=O)COc1ccc(-c2nccc(-c3ccc(Br)cc3)n2)cc1

>  <Target or test system>
Endothelial PAS domain-containing protein 1 (Homo sapiens)

>  <Class>
YES

$$$$
>  <Molecule>
O=Cc1cn(Cc2cccc([N+](=O)[O-])c2)c2ccccc12

>  <Target or test system>
Endothelial PAS domain-containing protein 1 (Homo sapiens)

>  <Class>
YES

$$$$
>  <Molecule>
CC(C)COc1ccc(C(=S)N2CCCC2)cc1

>  <Target or test system>
Endothelial PAS domain-containing protein 1 (Homo sapiens)

>  <Class>
YES

$$$$
>  <Molecule>
CCOC(=O)c1cccc(COC(=O)c2cccc(-c3nnc(-c4ccccc4)o3)c2)c1

>  <Target or test system>
Endothelial PAS domain-containing protein 1 (Homo sapiens)

>  <Class>
NO

$$$$
>  <Molecule>
COc1ccc(/C=N\n2nnc3ccccc32)cc1

>  <Target or test system>
Endothelial PAS domain-containing protein 1 (Homo sapiens)

>  <Class>
NO

$$$$
>  <Molecule>
CC(=O)Nc1ccc(NC(=O)c2c([N+](=O)[O-])c(C(C)(C)C)nn2C)cc1

>  <Target or test system>
Endothelial PAS domain-containing protein 1 (Homo sapiens)

>  <Class>
NO

$$$$
>  <Molecule>
COC(=O)c1cccc(-c2noc(-c3ccccc3F)n2)c1

>  <Target or test system>
Endothelial PAS domain-containing protein 1 (Homo sapiens)

>  <Class>
YES

$$$$
>  <Molecule>
CCOC(=O)c1cccc(NC(=O)/C=C/c2ccc3c(c2)OCO3)c1

>  <Target or test system>
Endothelial PAS domain-containing protein 1 (Homo sapiens)

>  <Class>
NO

$$$$
>  <Molecule>
Cc1cc(C)cc(C(=O)NC(=S)Nc2ccc(-c3cc4ccccc4oc3=O)cc2)c1

>  <Target or test system>
Endothelial PAS domain-containing protein 1 (Homo sapiens)

>  <Class>
NO

$$$$

All values here come from PubChem BioAssay AID651581.
